Here is a set of molecules with reported IC50 for Histone deacetylase 1 (Homo sapiens, UniProt Q13547), compiled from the literature.
Sequence (Q13547 whole entry): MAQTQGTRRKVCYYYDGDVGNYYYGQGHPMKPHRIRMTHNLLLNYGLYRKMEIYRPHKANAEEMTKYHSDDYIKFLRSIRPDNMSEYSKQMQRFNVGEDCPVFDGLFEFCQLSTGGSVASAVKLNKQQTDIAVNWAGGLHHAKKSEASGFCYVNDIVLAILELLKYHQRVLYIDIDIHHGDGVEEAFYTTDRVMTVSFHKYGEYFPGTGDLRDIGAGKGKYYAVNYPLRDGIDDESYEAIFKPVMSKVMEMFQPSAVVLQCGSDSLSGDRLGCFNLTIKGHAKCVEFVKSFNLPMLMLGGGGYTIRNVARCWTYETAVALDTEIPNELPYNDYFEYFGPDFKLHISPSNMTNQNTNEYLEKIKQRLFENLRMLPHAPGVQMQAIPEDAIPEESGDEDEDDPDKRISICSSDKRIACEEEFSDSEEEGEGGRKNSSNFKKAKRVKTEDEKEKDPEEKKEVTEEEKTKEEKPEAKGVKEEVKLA
reported.property: IC50 (nM)

// known answers, use as guide
[
  {
    "molecule": "N#Cc1ccc2c(ccn2CCCCCCC(=O)NO)c1",
    "experimental.target": "Histone deacetylase 1 (Homo sapiens, UniProt Q13547)",
    "endpoint.result": 2.42
  },
  {
    "molecule": "O=C(CCCCCCn1cccc1C(=O)c1ccccc1)NO",
    "experimental.target": "Histone deacetylase 1 (Homo sapiens, UniProt Q13547)",
    "endpoint.result": 13.7
  },
  {
    "molecule": "CCCNNC(=O)C=Cc1ccc(C(=O)NCCc2ccccc2)cc1",
    "experimental.target": "Histone deacetylase 1 (Homo sapiens, UniProt Q13547)",
    "endpoint.result": 35.8
  },
  {
    "molecule": "CC(=O)c1cccn1CCCCCCC(=O)NO",
    "experimental.target": "Histone deacetylase 1 (Homo sapiens, UniProt Q13547)",
    "endpoint.result": 51.9
  }
]

(I) CCCNNC(=O)CCc1ccc(C(=O)NCCc2ccccc2)cc1
(II) CCCNNC(=O)c1ccc(C=CC(=O)NCCc2ccccc2)cc1
(III) CN(C(=O)CC(O)/C=C/CCSS(=O)(=O)CC/C=C/C(O)CC(=O)N(C)c1ccccc1)c1ccccc1 (centres unmarked)
// query Please list these in order of increasing IC50. Thank you! Please list the labels according to the requested order.
// result II, I, III
